# Test system: RPMI-8226 leukemia
# method notes: NCI tumour cell line growth inhibition, 48 h
Measured GI50 accompanies every entry in the list below.

compound structure string	GI50
Oc1[nH]c2ccc(Cl)cc2c1/C=c1/ccc2c(c1)N=C(c1ccc(F)cc1)N=2	2.91 µM
CC1(C)[C@@H](O[C@@H]2OC[C@@H](O[C@@H]3O[C@H](CO)[C@@H](O)[C@H](O)[C@H]3O[C@@H]3OC[C@@H](O)[C@H](O)[C@H]3O)[C@H](O)[C@H]2O[C@@H]2O[C@H](CO)[C@@H](O)[C@H](O)[C@H]2O)CC[C@]2(C)[C@H]3CC[C@]45OC[C@@]6(CC[C@](C)(C=O)C[C@H]64)[C@H](O)C[C@@]5(C)[C@]3(C)CC[C@@H]12	1.12 µM
COc1ccc2c(c1)C(=O)c1c-2c(Nc2ccc(Cl)cc2)nc2ccccc12	24.5 µM

---

# Tested on: 786-0 renal
# method notes: NCI tumour cell line growth inhibition, 48 h
property: GI50

compound structure string	result
O=C(Nc1ccccc1)NS(=O)(=O)c1ccc(-n2nc3c(c2-c2ccc(Cl)cc2)Cc2ccccc2-3)cc1	27.5 µM
COc1cc2c(cc1C)NC(=O)/C2=C\c1cccc(Oc2ccccc2)c1	13.2 µM
O=C(/C=C/c1cc([N+](=O)[O-])ccc1Cl)c1ccccc1	15.2 µM
COc1cc(/C=C/C(=O)c2ccc(NC(=O)CN3CCN(c4cc5c(cc4F)c(=O)c(C(=O)O)cn5C4CC4)CC3)cc2)cc(OC)c1OC	0.947 µM
CN1CCN(c2ccc3nc(-c4ccc5nc(-c6ccc(OCCC(C)(C)C)cc6)[nH]c5c4)[nH]c3c2)CC1	2.7 µM
Cc1cccc2c(=O)c3c(sc12)c(NCCNCCO)nc1ccccc13	1.83 µM

---

# Tested on: HCT-116 colon
# method notes: NCI tumour cell line growth inhibition, 48 h

molecule	TGI
CCCCCCCCCCCCCC[S+](C)C	> 10 µM
COCOc1c(C(O[Si](C)(C)C(C)(C)C)c2cnc(Sc3ccccc3)n2C)ccc(OC)c1OC (stereo unspecified)	2.95 µM
Cc1cc(NC[C@H](O)[C@H](O)[C@H](O)CO)c(Sc2cc(=O)[nH]c(=O)[nH]2)cc1C	> 62.5 µM
COC(=O)CCC(=O)CC(=O)C(=O)Nc1c(Cl)cc([N+](=O)[O-])cc1Cl	> 100 µM
O=C1CCCC/C1=C\c1ccc(Br)cc1	31.6 µM
CSc1ccc(NC(=S)NN(C)C)cc1	> 10 µM

---

# Test system: BT-549 breast
# method notes: NCI tumour cell line growth inhibition, 48 h
TGI values by entry

compound	subject of test	measure unit	relation operator	TGI
CCCCNC(=S)Nc1nc(C(=O)NNC(=S)NC2CCCCC2)cs1	BT-549 breast	µM	>	100
COc1cc(/C=C/C(=O)c2c(C)nc3ccccc3c2C)ccc1OCCCOc1cc2c(cc1OC)C(=O)N1CCC[C@H]1C=N2	BT-549 breast	µM	=	0.0428
CC1OC(O[C@H]2C3C=CO[C@@H](OC4OC(CO)C(O)C(O)C4O)C3[C@@]3(COC(=O)/C=C/c4ccc(O)cc4)O[C@@H]23)C(O)C(O)C1O (stereo not given in full)	BT-549 breast	µM	>	100
CCOC(=O)Cc1nc2sc(S(N)(=O)=O)nn2c1Br	BT-549 breast	µM	=	83.8
O=C(/C=C/c1cc([N+](=O)[O-])ccc1Cl)c1ccccc1	BT-549 breast	µM	=	27.8
O=C(/C=C/c1cc(O)c(O)cc1O)OCCc1ccccc1	BT-549 breast	µM	=	62.1
COC(=O)/C=C/c1ccc2c(c1)CC1(C2)Cc2cc3c(cc2C1=O)CCC3 (stereo not given)	BT-549 breast	µM	>	100
N#Cc1c(N)sc2c1-c1ccccc1OC2	BT-549 breast	µM	>	100
CCCCN1C(=O)c2c(-c3sccc3N)sc(-c3sccc3N)c2C1=O	BT-549 breast	µM	>	88.9
Cc1ccc(OC2CC(n3cnc4ncnc(Cl)c43)OC2Oc2ccc(C)cc2)cc1 (stereo not given)	BT-549 breast	µM	>	100
